- protocol: duplex melting temperature (HRM, EvaGreen); higher = more stable duplex
- condition.label: duplex concentration 1 µM; backbone: PS-PO (listed strand fully phosphorothioate, complement phosphodiester)
So basically: duplex melting temperature at 60 °C or higher? That is 1. Lower than 60 °C? That is 0.

* GCTGTGAAACAATGTAG | 0
* AGACATCCCATACGAGCATCCA | 1
* GCCCGAGCATGACTGCG | 1
* GCTGAACTAACCACCA | 0
* TACTTCCAACGTAGG | 0
* GAACCGTTGATGATCTC | 0
* CAAACTTAGTAATCACGCCCAGCAACCA | 1
* CGATTTTGTCAAGCCT | 0
* CTGTAAGGCGATATGTT | 0
* TTTGGGTTAGTAAGAAGGCAGCAGTTGGGC | 1
* CGGGATTTCTGGCATCATTGTCCT | 1
